Target: ACVR2A (human)
Assay: KINOMEscan competition binding
Conditions: compound 10.0 µM
Quantity name: kinase still bound, per cent of control (%)
One number for each entry, in %.

COc1cc(C)c(Sc2cnc(NC(=O)c3ccc(CNC(C)C(C)C)cc3)s2)cc1C(=O)N1CCN(C(C)=O)CC1 (centres undefined) : 100
CCOc1cc(N2CCC(O)CC2)ccc1Nc1ncc2c(n1)N(C)c1ccccc1C(=O)N2C : 100
COc1cc2c(Nc3ccc(NC(=O)c4ccccc4)cc3)ncnc2cc1OCCCN1CCOCC1 : 100

Consider now this further compound.
stdin: Entry "CNC(=O)Nc1ccc(-c2nc(N3CC4CCC(C3)O4)c3cnn(C4CCC5(CC4)OCCO5)c3n2)cc1" : reported kinase still bound, per cent of control = ?
stdout: 78
